test.name: Oral bioavailability in mouse at 10 mg/kg
Format: ADME, organism-based
assay.context: in vivo
readout.kind: bioavailability (%)
State just the number; it will be interpreted in %.

# input compound: O=C(Nc1ccc(Oc2ccnc3[nH]c(-c4ccsc4)nc23)cc1)c1cccn(-c2ccc(F)cc2)c1=O ; wanted: its bioavailability
28.3

====

Test system: HepG2
test.name: Antiproliferative activity against human HepG2 cells assessed as reduction in cell viability incubated for 24 hrs by MTT assay
Format: functional, cell-based
assay.context: HepG2, 24 h
readout.kind: IC50 (µM)
State just the number; it will be interpreted in µM.

# compound, measurement.units, experimental.value
data = [
    ("CC(C)=C1C/C=C(\\C)CC/C=C(\\C)CC1OC(=O)c1ccc(C)cc1 (configuration not stated)", "µM", 68.2),
]

From here, focus on the item given below.
# input compound: CC(C)=C1C/C=C(\C)CC/C=C(\C)CC1OS(=O)(=O)c1ccc(C)cc1 (configuration not stated) ; wanted: its IC50
56.2

====

test.name: Cmax in mouse at 10 mg/kg, po
Assay type: ADME, organism-based
Set-up: dose 10 mg/kg, route po
assay.context: in vivo
readout.kind: Cmax (ng/mL)
State just the number; it will be interpreted in ng/mL.

# input compound: O=C(Nc1ccc(Oc2ccnc3[nH]c(-c4ccsc4)nc23)cc1)c1cccn(-c2ccc(F)cc2)c1=O ; wanted: its Cmax
2170

====

Tested on: SNU-5
test.name: cells
assay.context: Homo sapiens, SNU-5, 72 h
readout.kind: IC50 (µM)
State just the number; it will be interpreted in µM.

# input molecule: O=C(Nc1ccc(Oc2ccnc3[nH]c(-c4ccsc4)nc23)cc1)c1cccn(-c2ccc(F)cc2)c1=O ; wanted: its IC50
5.3

====

test.name: Half life in mouse at 10 mg/kg, po
Type: ADME, organism-based
assay.context: in vivo
readout.kind: half-life (h)
State just the number; it will be interpreted in h.

# input compound: O=C(Nc1ccc(Oc2ccnc3[nH]c(-c4ccsc4)nc23)cc1)c1cccn(-c2ccc(F)cc2)c1=O ; wanted: its half-life
2.07

====

system.under.test: Hepatocyte growth factor receptor (Homo sapiens)
Sequence (P08581 whole entry): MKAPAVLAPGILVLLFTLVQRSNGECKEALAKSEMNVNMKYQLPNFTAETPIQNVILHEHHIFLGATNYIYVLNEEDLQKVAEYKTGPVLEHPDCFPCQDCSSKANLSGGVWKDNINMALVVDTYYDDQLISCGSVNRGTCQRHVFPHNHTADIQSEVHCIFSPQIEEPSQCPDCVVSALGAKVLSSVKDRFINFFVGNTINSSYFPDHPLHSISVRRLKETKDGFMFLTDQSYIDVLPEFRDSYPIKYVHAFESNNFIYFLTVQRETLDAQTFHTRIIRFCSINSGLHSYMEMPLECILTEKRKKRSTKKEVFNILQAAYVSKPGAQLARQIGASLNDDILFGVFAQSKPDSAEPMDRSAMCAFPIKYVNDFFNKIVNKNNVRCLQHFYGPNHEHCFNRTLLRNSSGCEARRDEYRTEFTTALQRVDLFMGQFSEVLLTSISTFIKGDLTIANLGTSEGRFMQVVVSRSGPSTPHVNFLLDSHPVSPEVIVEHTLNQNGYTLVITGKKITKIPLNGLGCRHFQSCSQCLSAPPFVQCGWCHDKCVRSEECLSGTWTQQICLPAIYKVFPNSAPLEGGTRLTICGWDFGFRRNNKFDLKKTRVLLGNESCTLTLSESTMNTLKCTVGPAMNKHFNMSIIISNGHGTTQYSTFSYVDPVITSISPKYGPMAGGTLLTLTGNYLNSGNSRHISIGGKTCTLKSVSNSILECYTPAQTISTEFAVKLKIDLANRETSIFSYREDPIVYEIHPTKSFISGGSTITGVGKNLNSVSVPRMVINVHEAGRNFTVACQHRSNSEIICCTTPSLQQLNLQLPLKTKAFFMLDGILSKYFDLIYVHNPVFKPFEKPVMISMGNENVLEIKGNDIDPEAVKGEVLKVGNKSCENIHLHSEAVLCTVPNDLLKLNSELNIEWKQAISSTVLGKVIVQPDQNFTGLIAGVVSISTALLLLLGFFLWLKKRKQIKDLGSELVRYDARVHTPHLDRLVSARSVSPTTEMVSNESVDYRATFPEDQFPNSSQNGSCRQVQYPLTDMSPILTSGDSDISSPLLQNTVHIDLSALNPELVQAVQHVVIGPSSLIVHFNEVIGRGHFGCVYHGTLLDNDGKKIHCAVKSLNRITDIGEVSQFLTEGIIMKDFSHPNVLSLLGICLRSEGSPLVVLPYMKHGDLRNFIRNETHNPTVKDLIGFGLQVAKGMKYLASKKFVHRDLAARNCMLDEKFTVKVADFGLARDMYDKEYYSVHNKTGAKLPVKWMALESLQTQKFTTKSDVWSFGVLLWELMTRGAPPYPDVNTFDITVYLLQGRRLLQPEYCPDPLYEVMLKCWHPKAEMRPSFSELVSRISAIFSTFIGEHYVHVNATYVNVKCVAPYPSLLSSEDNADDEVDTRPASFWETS
test.name: Inhibition of c-Met (unknown origin) kinase activity using biotinylated poly-tyrosine as substrate in presence of ATP incubated for 1 hr by AlphaQuest analysis
readout.kind: IC50 (µM)
State just the number; it will be interpreted in µM.

# input compound: OC1CCC(n2cc(-c3ncc4ncn(Cc5ccc6ncccc6c5)c4n3)cn2)CC1 (stereo unspecified) ; wanted: its IC50
10.4

====

test.name: AUC in mouse at 10 mg/kg, po
Type: ADME, organism-based
Design: dose 10 mg/kg, route po
assay.context: in vivo
readout.kind: AUC (ng·h/mL)
State just the number; it will be interpreted in ng·h/mL.

# input compound: O=C(Nc1ccc(Oc2ccnc3[nH]c(-c4ccsc4)nc23)cc1)c1cccn(-c2ccc(F)cc2)c1=O ; wanted: its AUC
6280
